Reported Activity of 5HT3a with peptide, expressed as a percentage of the reference compound values are given for each entry in this list.
# measurement target: 5HT3a (Homo sapiens, UniProt P46098)
# Construct: host or cells: HEK293 or CHO
# Sequence (P46098 whole entry, looked up): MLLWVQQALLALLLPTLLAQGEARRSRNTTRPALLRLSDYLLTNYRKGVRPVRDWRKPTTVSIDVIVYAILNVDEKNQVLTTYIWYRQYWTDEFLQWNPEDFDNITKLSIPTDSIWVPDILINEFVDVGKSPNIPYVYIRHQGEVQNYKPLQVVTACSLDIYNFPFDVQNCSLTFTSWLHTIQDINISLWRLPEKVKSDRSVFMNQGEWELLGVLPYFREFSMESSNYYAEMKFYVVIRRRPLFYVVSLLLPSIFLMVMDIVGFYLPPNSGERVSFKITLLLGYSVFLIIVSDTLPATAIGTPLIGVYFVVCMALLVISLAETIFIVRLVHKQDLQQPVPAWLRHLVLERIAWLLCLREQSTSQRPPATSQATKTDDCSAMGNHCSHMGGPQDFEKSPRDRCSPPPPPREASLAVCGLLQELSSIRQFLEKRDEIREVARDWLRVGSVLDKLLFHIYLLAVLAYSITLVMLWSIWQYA
# protocol details: Ion channel panel (IonWorks Barracuda): 5HT3a
# Type: cell-based
Form entry: value (%) — number only.

Answered examples (5):
[[record]]
substance = "14 (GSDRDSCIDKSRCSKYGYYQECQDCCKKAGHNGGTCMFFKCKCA) [compound 14]"
measurement_target = "5HT3a (Homo sapiens, UniProt P46098)"
recorded_measurement = 96

[[record]]
substance = "21 (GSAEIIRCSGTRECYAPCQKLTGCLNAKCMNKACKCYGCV) [compound 21]"
measurement_target = "5HT3a (Homo sapiens, UniProt P46098)"
recorded_measurement = 87

[[record]]
substance = "13 (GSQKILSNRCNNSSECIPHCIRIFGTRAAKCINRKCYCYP) [compound 13]"
measurement_target = "5HT3a (Homo sapiens, UniProt P46098)"
recorded_measurement = 96

[[record]]
substance = "6 (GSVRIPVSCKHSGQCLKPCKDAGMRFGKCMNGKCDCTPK) [compound 6]"
measurement_target = "5HT3a (Homo sapiens, UniProt P46098)"
recorded_measurement = 85

[[record]]
substance = "2 (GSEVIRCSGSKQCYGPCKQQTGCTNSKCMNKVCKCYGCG) [compound 2]"
measurement_target = "5HT3a (Homo sapiens, UniProt P46098)"
recorded_measurement = 92


Write Activity of 5HT3a with peptide, expressed as a percentage of the reference compound of 38 (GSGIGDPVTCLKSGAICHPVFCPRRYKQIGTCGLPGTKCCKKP) [compound 38] ; system used: 5HT3a (Homo sapiens, UniProt P46098)
97

Write Activity of 5HT3a with peptide, expressed as a percentage of the reference compound of 15 (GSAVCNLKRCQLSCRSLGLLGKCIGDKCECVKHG) [compound 15] ; system used: 5HT3a (Homo sapiens, UniProt P46098)
86

Write Activity of 5HT3a with peptide, expressed as a percentage of the reference compound of 19 (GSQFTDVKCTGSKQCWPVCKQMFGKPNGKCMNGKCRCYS) [compound 19] ; system used: 5HT3a (Homo sapiens, UniProt P46098)
89

Write Activity of 5HT3a with peptide, expressed as a percentage of the reference compound of 3 (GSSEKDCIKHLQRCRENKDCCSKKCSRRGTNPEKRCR) [compound 3] ; system used: 5HT3a (Homo sapiens, UniProt P46098)
109
